- MEASURED_TARGET: human D4R (Homo sapiens (Human), UniProt P21917)
- Sequence (P21917 whole entry): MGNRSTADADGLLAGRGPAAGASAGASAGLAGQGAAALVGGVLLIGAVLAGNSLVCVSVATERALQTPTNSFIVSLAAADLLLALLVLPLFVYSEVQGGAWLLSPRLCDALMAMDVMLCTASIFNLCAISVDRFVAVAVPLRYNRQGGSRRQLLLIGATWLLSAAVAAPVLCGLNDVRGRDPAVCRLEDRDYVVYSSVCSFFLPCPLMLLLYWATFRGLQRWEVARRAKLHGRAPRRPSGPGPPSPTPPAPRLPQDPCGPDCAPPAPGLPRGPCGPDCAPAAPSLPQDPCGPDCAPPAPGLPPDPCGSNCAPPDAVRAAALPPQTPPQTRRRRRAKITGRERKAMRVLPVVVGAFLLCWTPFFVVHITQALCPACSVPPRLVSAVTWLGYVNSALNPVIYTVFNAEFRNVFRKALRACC
- PROTOCOL_DETAILS: Radioligand competition binding, [3H]N-methylspiperone, HEK293 membranes expressing human D4R
- EXPERIMENTAL_CONDITIONS: Table 1A; [3H]N-methylspiperone; read-out: D4R Ki ± SEM
OUTCOME_MEASURE: Ki (nM)
Numeric only. Scale: nM

Worked cases, answers included:
# COMPOUND, MEASURED_TARGET, NUMERIC_READOUT
measured = [
    ("CCc1cccc(N2CCN(CC(O)CCNC(=O)c3cn4ccccc4n3)CC2)c1Cl (centres unmarked) [Compound 23]", "human D4R (Homo sapiens (Human), UniProt P21917)", 11300),
    ("CCc1cccc(N2CCN(CCCCNC(=O)c3c(C)nc4sccn34)CC2)c1Cl [Compound 24]", "human D4R (Homo sapiens (Human), UniProt P21917)", 143),
    ("CCc1cccc(N2CCN(CCCCNC(=O)c3cc4ccccc4o3)CC2)c1Cl [Compound 20]", "human D4R (Homo sapiens (Human), UniProt P21917)", 356),
]

Entry CCc1c[nH]c(C(=O)NCCCCN2CCN(c3cccc(CC)c3Cl)CC2)n1 [Compound 25] has what Ki?
500

Entry CCc1cccc(N2CCN(CC(O)CCNC(=O)c3cc4ccccc4[nH]3)CC2)c1Cl (racemic) [Compound 19] has what Ki?
5520
